# Assay comment: solvent given as SMILES
# Measurement parameters: in ClCCl
Readout: emission maximum (nm)

{"Compound": "c1csc(-c2c3ccc(=[N+]4CCCCC4)cc-3oc3cc(N4CCCCC4)ccc23)c1", "Endpoint value": 603}
{"Compound": "COc1cc(/C=C/c2nc3ccccc3o2)c(OC)cc1/C=C/c1nc(C)nc(/C=C/c2cc(OC)c(/C=C/c3nc4ccccc4o3)cc2OC)n1", "Endpoint value": 496}
{"Compound": "COC(=O)c1c2ccccc2nc2ccccc12", "Endpoint value": 422}
{"Compound": "CCCCCCn1c2ccsc2c2sc3c(sc4c5sccc5n(CCCCCC)c43)c21", "Endpoint value": 411}
{"Compound": "COc1ccc(N2c3sc4ccccc4c3Sc3sc4ccccc4c32)cc1", "Endpoint value": 562}
